tested on: HCT-15 colon; experiment: NCI tumour cell line growth inhibition, 48 h
property_name: TGI

Below are worked cases with known answers.
CCOP(=O)(CCCC(O)CNc1cc(Cl)nc(N)n1)OCC (stereo unspecified) = > 100 µM
CC(=O)O[C@H]1C(=O)[C@@]2(C)[C@H]([C@H](OC(=O)c3cccc(C(F)(F)F)c3)[C@]3(O)C[C@H](OC(=O)[C@H](O)[C@@H](NC(=O)c4ccccc4)c4ccccc4)C(C)=C1C3(C)C)[C@]1(OC(C)=O)CO[C@@H]1C[C@@H]2O = > 25 µM
O=C(CO)CC(=O)C(=O)Nc1ccccc1 = > 100 µM

Ask: Please report TGI for the following compound: O=C(Nc1cc(Cl)cc(Cl)c1)c1ccc(NC2=C(Cl)C(=O)N(Cc3ccc(Cl)cc3Cl)C2=O)cc1
Result: 95.3 µM

Ask: Please report TGI for the following compound: C=CC(c1ccccc1)[C@@]1(OC(C)=O)C(=O)C(=O)OC1C1COC(C)(C)O1 (stereo partly specified)
Result: 24.9 µM

Ask: Please report TGI for the following compound: O=C1c2ccccc2NC(=O)C2C1C(c1ccccc1)CC2(O)c1ccccc1 (stereo unspecified)
Result: > 100 µM
